Tested on: SK-MEL-5 melanoma
measurement_notes: NCI-60 one-dose screen, 48 h (100 = growth as untreated, 0 = no growth, -100 = all killed)
condition_details: 10 µM unless noted
Compounds without any hit were thinned out: in the full panel of roughly 83,000, 20% have a hit.
observed_property: growth (%)

INSERT INTO measurements (compound, target, observed_property, value_reported) VALUES
  ('Cc1ccc(NC(=O)CNc2cc(C(N)=O)cc(F)c2C)c(Cl)c1', 'SK-MEL-5 melanoma', 'growth', 97.1),
  ('C/C(=N\O)[C@H]1C[C@]23CC[C@]4(C)[C@H](CC[C@@H]5[C@@]6(C)CC/C(=N/O)C(C)(C)[C@@H]6CC[C@]54C)[C@H]2[C@H](C)C1(C)OC3', 'SK-MEL-5 melanoma', 'growth', 100),
  ('CCCCCCCn1cc2c(NCCc3ccccc3)ncnc2n1', 'SK-MEL-5 melanoma', 'growth', 99.6),
  ('NC(=O)c1cccc(-n2ccc3cc(NC(=O)Nc4ccc(N5CCOCC5)c(C(F)(F)F)c4)ccc32)n1', 'SK-MEL-5 melanoma', 'growth', -79.6),
  ('N/C(=N\C(N)=N\c1nc2ccccc2s1)c1ccc(C(F)(F)F)cc1', 'SK-MEL-5 melanoma', 'growth', 89),
  ('COCCNc1ccc2ncc(C#Cc3cncc(C(=O)Nc4ccc(CN5CCN(C)CC5)c(C(F)(F)F)c4)c3)n2n1', 'SK-MEL-5 melanoma', 'growth', -93.7),
  ('CCNC(=O)Oc1ccc(/C(=C(/C)c2ccccc2)c2ccc(OCCN3CCCCCC3)cc2)cc1', 'SK-MEL-5 melanoma', 'growth', -94.7),
  ('CC(C)(C)n1nnnc1C(Nc1cccc2c1OCO2)c1cc2cccc3ccc4cccc1c4c32 (stereo not given)', 'SK-MEL-5 melanoma', 'growth', 85),
  ('COc1ccc(CCOc2cc3c(cc2OC)CCN(C(=O)NCc2cocn2)C3c2ccc(C)cc2C)cc1 (stereo not given)', 'SK-MEL-5 melanoma', 'growth', -43.2),
  ('CC1(C)[C@@H](O)CC[C@]2(C)[C@H]3CC[C@@H]4[C@H]5[C@H](C(=O)/C=C\c6ccncc6)CC[C@]5(O)CC[C@@]4(C)[C@]3(C)CC[C@@H]12', 'SK-MEL-5 melanoma', 'growth', 80.6),
  ('O=C1CCCc2nc(Nc3ccc(S(=O)(=O)Nc4ccc([N+](=O)[O-])cc4)cc3)ncc21', 'SK-MEL-5 melanoma', 'growth', 104),
  ('Cn1cc(-c2nc(N)nnc2-c2c[nH]c3ccc(Br)cc23)c2cc(Br)ccc21', 'SK-MEL-5 melanoma', 'growth', 42.9),
  ('COc1ccc(Cn2cc3c(c2-c2cc(OC)c(OC)c(OC)c2)CCc2c(CN4CCOCC4)noc2-3)cc1', 'SK-MEL-5 melanoma', 'growth', 17.3),
  ('NC(N)=Nc1ccc(Oc2cccc(Oc3ccc(Cl)c(C(F)(F)F)c3)c2)cn1', 'SK-MEL-5 melanoma', 'growth', 14.3),
  ('CCn1c2ccccc2c2cc(-n3nncc3-c3ccccc3)ccc21', 'SK-MEL-5 melanoma', 'growth', -11.7);

====

System: CCRF-CEM leukemia
measurement_notes: NCI-60 one-dose screen, 48 h
condition_details: 10 µM unless noted
The panel holds about 83,000 compounds, 20% with a hit somewhere; the sample as a whole holds those more often. Active and inactive are the calls of the source. Rule for the calls: active = growth percent below 10; inactive = the rest.
Possible outcomes: yes (active), no (inactive)

INSERT INTO assay_data (compound, assigned_category) VALUES
  ('COc1cc(/C=N/NC(=O)c2cn(C3CC3)c3c(OC)c(N4CC5CCCNC5C4)c(F)cc3c2=O)ccc1O (centres undefined)', 'yes'),
  ('CCNC(=O)N1CCc2cc(OC)c(OCCc3ccc(OC)cc3)cc2C1c1ccc(Cl)cc1C (centres undefined)', 'no'),
  ('O=S(=O)(NCCCNc1nccc(-n2cnc3ccccc32)n1)c1ccc(C(F)(F)F)cc1', 'no'),
  ('COc1ccc(NC2=C(Cl)C(=O)c3nc(C)ccc3C2=O)cc1OC', 'no'),
  ('Cn1ccnc1C(=O)/C=C/c1ccc(NC(=O)c2c(F)c(F)c(F)c(F)c2F)cc1', 'no'),
  ('COc1cc2nc(Cl)nc(Nc3cccc(C4=Nc5c(N)nc(N)nc5NC(c5ccc(Br)cc5)C4)c3)c2cc1OC (centres undefined)', 'no'),
  ('CC[C@H](CO)Nc1ccc2ncc(C#Cc3cncc(C(=O)Nc4ccc(CN5CCN(C)CC5)c(C(F)(F)F)c4)c3)n2n1', 'yes'),
  ('O=C(CN1CCN(c2cc(=O)[nH]c3ccc(F)cc23)CC1)Nc1ccc(Cl)cc1', 'no'),
  ('COc1cc(-c2nnc(SCc3ccc(O)c4ncccc34)n2-c2ccccc2)cc(OC)c1OC', 'yes'),
  ('O=C(NNc1nc2cc(F)ccc2n2cccc12)c1ccncn1', 'yes'),
  ('N#Cc1ccccc1Cn1c2nc(=N)c3ccccc3c-2nc2ccccc21', 'no'),
  ('C=C(C)[C@@H]1CC[C@]2(COC)CC[C@]3(C)[C@H](CC[C@@H]4[C@@]5(C)CCCNC(C)(C)[C@@H]5CC[C@]43C)[C@@H]12', 'yes'),
  ('O=C(NNc1nc2cc(F)c(F)cc2n2c(CN3CC4CNCC4C3)ccc12)c1cnccn1 (centres undefined)', 'yes'),
  ('CCCCCc1ccc(S(=O)(=O)Nc2cccc(-c3csc(NC(=O)CCCCCN4CCN(CCO)CC4)n3)c2)cc1', 'no'),
  ('CCCCCc1ccc(S(=O)(=O)Nc2cc(-c3csc(NC(=O)CN4CCN(C)CC4)n3)ccc2N2CCN(C)CC2)cc1', 'yes'),
  ('CS(=O)(=O)Nc1cc(-c2ccc3ncc(C#N)c(NCc4cccc(F)c4)c3c2)cnc1Cl', 'no'),
  ('NC(N)=Nc1ccc(Oc2cccc(Nc3cccc(C(F)(F)F)c3)c2)cn1', 'yes'),
  ('Cn1cc(-c2nc(N)nnc2-c2c[nH]c3ccc(Br)cc23)c2cc(Br)ccc21', 'no'),
  ('CCO/C=N/C1=C(C#N)C(c2ccc(Cl)cc2)c2sc3c(C)cccc3c2O1 (centres undefined)', 'no'),
  ('NC(N)=Nc1ccc(Oc2cccc(Nc3ccc(Br)c(C(F)(F)F)c3)c2)cn1', 'yes'),
  ('Cn1cc(-c2nnc(N)nc2-c2c[nH]c3ccc(F)cc23)c2cc(F)ccc21', 'no'),
  ('CC(=O)c1cc(C(=O)N2c3ccccc3Sc3ccccc32)n2ccc3ccccc3c12', 'no'),
  ('Cc1ccc(C2=NN(C)C(=O)C3(CCCC3)C2)cc1', 'no'),
  ('CCn1c(SCC(=O)Nc2cccc(C(=O)/C=C/c3ccccc3Cl)c2)nc2ccccc2c1=O', 'no');

====

System: COLO 205 colon
measurement_notes: NCI-60 one-dose screen, 48 h (100 = growth as untreated, 0 = no growth, -100 = all killed)
condition_details: 10 µM unless noted
This is part of a sample that, as a whole, favours compounds with a hit. Of some 83,000 tested, about 20% had one in any assay. The source made the active and inactive calls. Rule for the calls: active = growth percent below 10; inactive = the rest.
observed_property: growth

INSERT INTO results (compound, value_reported) VALUES
  ('Cc1ccc(S(=O)(=O)NCCNc2nc(Nc3ccc(N4CCN(C)CC4)cc3)nc3ccsc23)cc1', '113% (inactive)'),
  ('CC(=O)N1C(=S)NC(=O)C1CC(C)C (stereo not drawn)', '110% (inactive)'),
  ('COc1cc(/C=C2\C(=O)Nc3cc(Cl)ccc32)ccc1OCc1ccc(F)cc1', '110% (inactive)');

====

System: UACC-257 melanoma
measurement_notes: NCI-60 one-dose screen, 48 h
condition_details: 10 µM unless noted
Compounds without any hit were thinned out: in the full panel of roughly 83,000, 20% have a hit. Active and inactive are the calls of the source. Rule for the calls: active = growth percent below 10; inactive = the rest.
Classes used: active, inactive

INSERT INTO assay_data (molecule, assigned_category) VALUES
  ('N#Cc1cccc(CN2CCc3ncn(Cc4ccc(Cl)cc4)c(=O)c3C2)c1', 'inactive'),
  ('c1ccc(C(c2nc3ncncc3[nH]2)N2CSc3nc4ccccc4n3C2)cc1 (configuration not stated)', 'inactive'),
  ('CNC1CCc2c(sc(NC(=O)c3ccc(C(C)(C)C)cc3)c2C(N)=O)C1 (configuration not stated)', 'inactive'),
  ('COc1ccc(/C=N/NC2=NC3C(S2)N(C)C(=O)N3C)cc1 (configuration not stated)', 'inactive'),
  ('N#Cc1ccccc1Cn1c2nc(=N)c3ccccc3c-2nc2ccccc21', 'inactive'),
  ('O=C(NNc1nc2cc(F)ccc2n2c(CO)ccc12)c1cnccn1', 'active'),
  ('C#CCn1cccc1CNc1ccc(OC)cc1', 'inactive'),
  ('CS(=O)(=O)Nc1cc(-c2ccc3ncc(C#N)c(NCc4ccccc4O)c3c2)cnc1Cl', 'active'),
  ('CC1(C)[C@@H](O)CC[C@]2(C)[C@H]3CC[C@@H]4[C@H]5[C@H](C(=O)/C=C\c6ccccn6)CC[C@]5(O)CC[C@@]4(C)[C@]3(C)CC[C@@H]12', 'inactive'),
  ('NC(N)=Nc1ccc(Oc2cccc(Nc3ccc(Cl)c(C(F)(F)F)c3)c2)cn1', 'active'),
  ('COc1ccc(-c2nc(C(Cl)Cl)nc3cc(-c4ccccc4)nn23)cc1', 'active'),
  ('COc1cc2nc(Cl)nc(Nc3cccc(C4=Nc5c(N)nc(N)nc5NC(c5ccc6c(c5)OCO6)C4)c3)c2cc1OC (configuration not stated)', 'inactive'),
  ('COC(=O)C[Se]C(=O)Cc1c(C)n(C(=O)c2ccc(Cl)cc2)c2ccc(OC)cc12', 'inactive'),
  ('CCOc1ccc(C(=O)Nc2ncc(Cc3ccc(F)cc3)s2)cc1', 'inactive'),
  ('COc1ccc2[nH]cc(-c3csc4nc(-c5ccccc5)cn34)c2c1', 'inactive'),
  ('COc1cc(OC)c(S(N)(=O)=O)cc1C(=O)/C=C/c1ccc(Cl)cc1', 'inactive'),
  ('CNC(=O)c1c(NC(=O)c2ccccc2C(F)(F)F)sc2c1CCC(=O)C2', 'inactive'),
  ('CCCCCc1ccc(S(=O)(=O)Nc2cccc(-c3csc(NC(=O)CNCCN(C)C)n3)c2)cc1', 'inactive'),
  ('COc1ccc(OC)c(-c2nc(SCC(=O)c3ccc(Br)cc3)nc(Nc3ccc(S(N)(=O)=O)cc3)c2C#N)c1', 'inactive'),
  ('NS(=O)(=O)c1ccc(Nc2nc(SCc3ccccc3)nc3ccccc23)cc1', 'inactive'),
  ('COc1ccc2c(c1)c(CC(=O)[Se]CC#N)c(C)n2C(=O)c1ccc(Cl)cc1', 'active'),
  ('CC(C)c1ccc(NCc2cn(-c3ccc(C(=O)O)cc3)nc2-c2cc(C(F)(F)F)cc(C(F)(F)F)c2)cc1', 'inactive'),
  ('CC(=O)C1=C(C)NC(NN)=NC1c1cccc(Cl)c1 (configuration not stated)', 'inactive'),
  ('C[C@@H](Nc1c(C#N)cnc2ccc(-c3cnc(Cl)c(NS(C)(=O)=O)c3)cc12)c1ccccc1', 'inactive'),
  ('O=C(c1ccc(O)c(C(=O)N2Cc3ccc(OCCC[P+](c4ccccc4)(c4ccccc4)c4ccccc4)cc3C2)c1)N1Cc2cccc(F)c2C1', 'inactive'),
  ('COc1ccc(/C=C/C(=O)c2cc(S(N)(=O)=O)c(OC)cc2OC)cc1', 'inactive'),
  ('O=C(CCC(=O)N1CCOCC1)OCCCCCCSc1ccc([N+](=O)[O-])c2nonc12', 'active');
